Could you please report measured koff for the items listed next?
Molecular target: T1, Recombinant Human TNF-α/TNFSF1A (human, UniProt P01375 77-233)
T1 construct: also called hTNF-α; huTNFα
T1 sequence (P01375 77-233 limits assumed): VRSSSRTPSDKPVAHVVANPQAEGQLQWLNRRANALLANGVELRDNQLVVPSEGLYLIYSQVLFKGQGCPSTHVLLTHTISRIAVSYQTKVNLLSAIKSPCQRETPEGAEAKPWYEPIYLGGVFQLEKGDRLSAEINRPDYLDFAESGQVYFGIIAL
Assay: SPR (BIACORE), antibody captured, TNFα in solution
Answers are plain numbers, in s⁻¹.

Recorded koff, per entry:
INSERT INTO measurements (binder, recorded_endpoint, observed) VALUES
  ('AB376 (antibody, V domains shown, Full-length humanized antibody made in HEK 293-6E; also called hMAK199VH.2a/hMAK199VL.1a) VH: EIQLVQSGAEVKKPGASVKVSCKASGYTFTNYGMNWVRQAPGQGLEWMGWINTYTGEPTYADDFKGRFTFTLDTSTSTAYMELSSLRSEDTAVYFCARKFLTTVVVTDYAMDYWGQGTTVTVSS VL: DIQMTQSPSSLSASVGDRVTITCRASQDISNYLNWYQQKPGKTVKLLIYYTSRLQSGVPSRFSGSGSGTDYTLTISSLQPEDFATYFCQQGNTLPPTFGQGTKLEIK', 'koff', 0.0014),
  ('AB351 (antibody, V domains shown, Full-length humanized antibody made in HEK 293-6E; also called hMAK199VH.1/hMAK199VL.1) VH: EVQLVQSGSELKKPGASVKVSCKASGYTFTNYGMNWVRQAPGQGLEWMGWINTYTGEPTYADDFKGRFVFSLDTSVSTAYLQISSLKAEDTAVYYCARKFLTTVVVTDYAMDYWGQGTTVTVSS VL: DIQMTQSPSSLSASVGDRVTITCRASQDISNYLNWYQQKPGKAPKLLIYYTSRLQSGVPSRFSGSGSGTDFTLTISSLQPEDFATYYCQQGNTLPPTFGQGTKLEIK', 'koff', 0.00068),
  ('AB362 (antibody, V domains shown, Full-length humanized antibody made in HEK 293-6E; also called hMAK199VH.1a/hMAK199VL.2b) VH: EIQLVQSGSELKKPGASVKVSCKASGYTFTNYGMNWVRQAPGQGLEWMGWINTYTGEPTYADDFKGRFVFSLDTSVSTAYLQISSLKAEDTAVYFCARKFLTTVVVTDYAMDYWGQGTTVTVSS VL: DIVMTQSPAFLSVTPGEKVTITCRASQDISNYLNWYQQKPDQAPKLLIYYTSRLQSGVPSRFSGSGSGTDYTFTISSLEAEDAATYYCQQGNTLPPTFGQGTKLEIK', 'koff', 0.0011),
  ('AB380 (antibody, V domains shown, Full-length humanized antibody made in HEK 293-6E; also called hMAK199VH.2a/hMAK199VL.2b) VH: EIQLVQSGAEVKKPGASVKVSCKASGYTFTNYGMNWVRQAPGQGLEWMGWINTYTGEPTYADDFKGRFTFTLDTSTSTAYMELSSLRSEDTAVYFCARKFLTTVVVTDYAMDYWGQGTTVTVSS VL: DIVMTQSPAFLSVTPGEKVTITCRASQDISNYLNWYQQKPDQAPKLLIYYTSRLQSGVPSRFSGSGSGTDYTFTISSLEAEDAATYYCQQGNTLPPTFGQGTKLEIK', 'koff', 0.0015);

Continue with the next binder.
# input So what does the record say about koff for AB355 (antibody, V domains shown, Full-length humanized antibody made in HEK 293-6E; also called hMAK199VH.1/hMAK199VL.2a) VH: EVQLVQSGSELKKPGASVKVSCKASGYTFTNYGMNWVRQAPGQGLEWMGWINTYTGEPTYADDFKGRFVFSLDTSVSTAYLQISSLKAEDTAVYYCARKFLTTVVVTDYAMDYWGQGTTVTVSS VL: DIVMTQSPAFLSVTPGEKVTITCRASQDISNYLNWYQQKPDQTVKLLIYYTSRLQSGVPSRFSGSGSGTDYTFTISSLEAEDAATYFCQQGNTLPPTFGQGTKLEIK ?
# output 0.0014

Just for reference, patent US20150111251A1 is where these values come from.
